Test system: pERK in B9 cells (HRAS^Q61L)
assay.info: Phospho-ERK AlphaScreen assay, pERK activation in B9
Assay type: cell-based, murine
conditions: Mus musculus; B9, HRAS^Q61L; concentration increasing pERK to 50% compared to positive control 10 μM PLX4720; read-out: pERK activation EC50 B9
pEC50: −log10 of the molar value.
pEC50 for assorted compounds
readout.type: pEC50

compound	result
CCCS(=O)(=O)Nc1ccc(F)c(C(=O)c2c[nH]c3ncc(-c4ccc(Cl)cc4)cc23)c1F [Vemurafenib, vemurafenib, reference compound]	6.44
O=C(c1c(F)ccc(NS(=O)(=O)N2CC[C@@H](F)C2)c1F)c1c[nH]c2ncc(-c3cnc(C4CC4)nc3)cc12	< 3.70
CCN(C)S(=O)(=O)Nc1ccc(F)c(C(=O)c2c[nH]c3ncc(-c4cnc(C5CC5)nc4)cc23)c1F	< 3.70

Every entry's value here was drawn from patent US9814714B2.
